# credit: PubChem BioAssay (NCATS)

# ASSAY_REMARKS: NFAT Signaling Pathway (AID 444);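 note: carbachol stimulus at about its EC50 of 1 µM final; % is set by controls: 0 for no effect and ±100 for the full control effect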
# STATED_CONDITIONS: Jurkat NFAT-bla M1, carbachol, beta-lactamase ratio, 5 h; at 17.2 µM (top of the series) unless noted
Inconclusive results are not listed.
Recorded activity change, negative = inhibition for the following compounds
State the answer as a number, implicitly in %.

[
  {
    "COMPOUND": "C[C@H]1CS(=O)(=O)CCN1/N=C\\c1ccc([N+](=O)[O-])o1",
    "VALUE_UNITS": "%",
    "activity change, negative = inhibition": 1.33
  },
  {
    "COMPOUND": "c1ccc(CNc2ncnc3nc[nH]c23)cc1",
    "VALUE_UNITS": "%",
    "activity change, negative = inhibition": 7.66
  },
  {
    "COMPOUND": "CCOC(=O)O[C@@H](C)OC(=O)[C@@H]1N2C(=O)[C@@H](NC(=O)[C@@H](N)c3ccccc3)[C@H]2SC1(C)C",
    "VALUE_UNITS": "%",
    "activity change, negative = inhibition": -4.72
  },
  {
    "COMPOUND": "COc1cc(OC)c2c(c1Cl)O[C@@]1(C2=O)[C@H](C)CC(=O)C[C@@H]1OC",
    "VALUE_UNITS": "%",
    "activity change, negative = inhibition": -1.63
  },
  {
    "COMPOUND": "Cn1nnnc1SCC1=C(C(=O)O)N2C(=O)[C@@H](NC(=O)[C@@H](O)c3ccccc3)[C@@H]2SC1",
    "VALUE_UNITS": "%",
    "activity change, negative = inhibition": -2.02
  }
]

The recorded activity change, negative = inhibition for entry C[C@@H]1C[C@H]2[C@@H]3C[C@H](F)C4=CC(=O)C=C[C@@]4(C)[C@]3(F)[C@H](O)C[C@]2(C)[C@@]1(O)C(=O)CO equals 2.6

The recorded activity change, negative = inhibition for entry CC1(C)O[C@H]2C[C@@H]3[C@H]4CCC5=CC(=O)CC[C@@]5(C)[C@]4(F)[C@@H](O)C[C@@]3(C)[C@@]2(C(=O)CCl)O1 equals 17.6
